Below, each of the variants is paired with its reported yeast fitness value.
B1: tRNA (parent)
chain: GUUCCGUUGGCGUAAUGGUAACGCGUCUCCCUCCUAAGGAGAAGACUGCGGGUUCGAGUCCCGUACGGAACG

- Variants of: B1
- ASSAY_EXPLANATION: yeast fitness relative to wild type (ratio to wild type); higher = fitter; tRNA-Arg(CCU), competitive growth, 37 C, YPD
Variants at the floor of the assay were thinned out.
// return just the number, without any unit appended

C11G G39C U47C C60A C61G A69U = 0.528
U8C A14U C30A C66U A70G = 0.546
G17C G58C = 0.528

Task: What value of measured yeast fitness is listed for U59A C66U ?
Output: 0.815

Task: What value of measured yeast fitness is listed for G38A C62A ?
Output: 0.742
